ASSAY_EXPLANATION: chemical genetic growth profiling, strain panel (AID 1159580);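 also: tested at 20 µM; growth read once vehicle control cultures reached saturation at 30 °C; 1 = growth at the plate median or of vehicle wells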
SETTINGS: S. cerevisiae deletion strains, growth OD, locus YGL173C, strain kem1, active compounds read low
About 2,000 (36%) of roughly 5,500 compounds were called active. Inconclusive results (about 18%) are left out. The list shows a part of the results.
Consider the cut-off 0.9. If the recorded normalized growth is strictly smaller, the label is yes (1); if not, the label is no (0).

Task item: Determine if `O=c1ccc2ccc(O)c(O)c2o1` shows normalized growth strictly lower than 0.9.
Reply: no (0)

Task item: # strict comparison: is reported normalized growth < 0.9? input = `O=C1c2ccc(O)c(O)c2C(=O)c2c(O)ccc(O)c21`
Reply: yes (1)

Task item: Determine whether this compound shows normalized growth lower than 0.9 (ties excluded): `Cc1cc(O)c2c(c1O)C(=O)c1c(O)cc(C)c(O)c1C2=O`
Reply: no (0)

Task item: Confirm or reject: normalized growth of `Nc1ncnc2c1ncn2[C@@H]1O[C@H](CO)[C@@H](O)[C@@H]1O` lies strictly below 0.9
Reply: no (0)

Task item: Is it true that normalized growth reported for `O=C1c2ccccc2C(=O)c2c1ccc(O)c2O` is less than 0.9?
Reply: yes (1)

Task item: Given the entry `O=C1c2ccccc2C(=O)c2c(O)c(O)cc(O)c21` , would its reported normalized growth be below 0.9?
Reply: yes (1)

----------
Please go through the items and note down their normalized growth.
ASSAY_EXPLANATION: chemical genetic growth profiling, strain panel (AID 1159580);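 also: tested at 20 µM; growth read once vehicle control cultures reached saturation at 30 °C; 1 = growth at the plate median or of vehicle wells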
SETTINGS: S. cerevisiae deletion strains, growth OD, locus YGL240W, strain doc1, active compounds read low
The whole screen tested about 5,500 compounds, of which about 2,000 (36%) were called active. Inconclusive results (about 18%) are left out. This is one part of the list.
Lab note: jot down the number only; don't add units.

Task item: What normalized growth value was documented for this compound, `CC(C)=CCc1c(O)cc2occ(-c3ccc4c(c3)OCO4)c(=O)c2c1O` ?
Reply: 0.944

Task item: I would be grateful if you could share the reported normalized growth for `CCCCC/C=C\C/C=C\C/C=C\C/C=C\CCCC(=O)O` .
Reply: 0.963

Task item: Would you mind telling me what normalized growth value was observed for `Cn1c([N+](=O)[O-])cnc1COC(N)=O` ?
Reply: 1

Task item: Consider the compound shown here: `CC(C)=CCC1=C(O)c2ccccc2C(=O)C1=O` What is its recorded normalized growth?
Reply: 0.924

Task item: Which normalized growth value is on record for C[N+]1(C)C2CC[C@H]1CC(OC(=O)C(O)c1ccccc1)C2 (stereo partly drawn) ?
Reply: 1.01

Task item: Look up normalized growth for this compound: CC(=O)Oc1ccc2c(c1)CCC1C2CCC2(C)C1CC(OC(C)=O)C2OC(C)=O (stereo not drawn)
Reply: 0.935

Task item: Item under review: `COc1ccc2c(=O)c(-c3cc4c(cc3OC)OCO4)coc2c1` . Reported normalized growth?
Reply: 1

Task item: Returns the measured normalized growth for the input compound. Input: `CN1CCN(CCCN2c3ccccc3Sc3ccc(Cl)cc32)CC1`
Reply: 1.01

Task item: // returns reported normalized growth for input `COc1cc2c(cc1-c1coc3c4c(c(OC)cc3c1=O)OC(C)(C)C=C4)OCO2`
Reply: 0.984

Task item: Field request: normalized growth | item: `CC1(C)C=Cc2c(cc3occ(-c4ccc5c(c4)OCO5)c(=O)c3c2O)O1`
Reply: 1.02

Task item: Need normalized growth, item C[C@]12CCC3C(CC[C@H]4C[C@@H](O)CC[C@]34C)C1CCC2=O (stereo partly drawn)
Reply: 0.968

Task item: Dear colleague, I am looking for the recorded normalized growth of the following compound: `COc1cc(OC)c(C(C)=O)c(O)c1C`
Reply: 0.812

Task item: What normalized growth value was documented for this compound, OC[C@@H](O)C(O[C@@H]1O[C@H](CO)[C@H](O)[C@H](O)[C@H]1O)[C@H](O)[C@@H](O)CO (stereo partly drawn) ?
Reply: 0.999

Task item: Recorded normalized growth for `COc1cc(OC)c2c(=O)c(-c3ccc4c(c3)OCO4)coc2c1` , please?
Reply: 1.02

Task item: I would be grateful if you could share the reported normalized growth for CCOC(=O)C1=C(C)NC(C)=C(C(=O)OC)C1c1cccc([N+](=O)[O-])c1 (stereo not drawn) .
Reply: 0.994

Task item: normalized growth for `Nc1ncnc2c1ncn2[C@@H]1O[C@H](CO)[C@@H](O)[C@@H]1O` ?
Reply: 1.02

Task item: Value lookup for normalized growth; key = Cn1nnnc1SCC1=C(C(=O)O)N2C(=O)C(NC(=O)C(OC=O)c3ccccc3)C2SC1 (stereo not drawn)
Reply: 0.978

Task item: Consider the compound shown here: CCC(=O)O[C@H]1CCC2C3CCc4cc(O)ccc4C3CC[C@@]21C (stereo partly drawn) What is its recorded normalized growth?
Reply: 0.972

Task item: // query normalized growth value for entry `COc1cc2ccc(=O)oc2c(OC)c1OC`
Reply: 0.985

Task item: GET /values?readout=normalized growth&item= CC(=O)O[C@H]1CC2CCC3C(CC[C@@]4(C)C3C[C@H]([N+]3(C)CCCCC3)[C@@H]4OC(C)=O)[C@@]2(C)C[C@@H]1[N+]1(C)CCCCC1 (stereo partly drawn)
Reply: 1.02

Task item: Could you tell me which normalized growth is on file for `CCNc1nc(Cl)nc(NC(C)C)n1` ?
Reply: 0.98

Task item: State the recorded normalized growth for this entry: `COc1ccc2ccc(=O)oc2c1CC=C(C)C`
Reply: 0.701

Task item: Suppose we examine the compound `C[C@H]1C(=O)O[C@@H]2CCN3CC=C(COC(=O)[C@](C)(O)[C@]1(C)O)[C@H]23` ; what normalized growth value has been reported?
Reply: 0.987

Task item: Quick check: normalized growth of `O=c1[nH]c2ccccc2n1CCCN1CCC(n2c(=O)[nH]c3cc(Cl)ccc32)CC1` ?
Reply: 0.927

Task item: Recorded normalized growth for `COc1c(O)cc(O)cc1O` , please?
Reply: 0.992

Task item: Suppose we examine the compound `Cn1c(=O)[nH]c(=O)c2[nH]cnc21` ; what normalized growth value has been reported?
Reply: 0.969

Task item: What normalized growth value was documented for this compound, C=C1CC2C(CCC3(C)C(=O)CCC23)C2(C)C=CC(=O)C=C12 (stereo not drawn) ?
Reply: 0.95

Task item: So what does the record say about normalized growth for `CC(C)=CCC/C(C)=C/COc1ccc2ccc(=O)oc2c1` ?
Reply: 0.999

Task item: If you can, please state the reported normalized growth value of CC1=C(C(=O)O)N2C(=O)[C@@H](NC(=O)[C@H](N)C3=CCC=CC3)C2SC1 (stereo partly drawn) .
Reply: 1.03

Task item: If you can, please state the reported normalized growth value of `O=C(O)CCCN1C(=O)c2cccc3cccc(c23)C1=O` .
Reply: 1

Task item: Given the entry `COc1ccc(Cc2nccc3cc(OC)c(OC)cc23)cc1OC` , report its measured normalized growth.
Reply: 0.967

Task item: What value of normalized growth has been recorded for this entry: CC(=O)OCC(=O)[C@@]1(O)CCC2C3CCC4=CC(=O)CC[C@]4(C)[C@@]3(F)[C@@H](O)C[C@@]21C (stereo partly drawn)
Reply: 1.01

Task item: # query: normalized growth of entry `Cc1c(N(C)CS(=O)(=O)O)c(=O)n(-c2ccccc2)n1C`
Reply: 1.03

Task item: Recorded normalized growth of `CCCCCN=C(N)N/N=C\c1c[nH]c2ccc(OC)cc12` , please.
Reply: 1.01

Task item: # query: normalized growth of entry `CC1(C)C[C@@H]2C(=O)CC[C@H]3O[C@]3(C)CC[C@H]21`
Reply: 1.02

Task item: What value of normalized growth has been recorded for this entry: `COc1ccc2c(=O)c(CC(=O)O)coc2c1`
Reply: 0.951

Task item: # query: normalized growth of entry CCCCC(=O)O[C@H]1CCC2C3CCc4cc(O)ccc4C3CC[C@@]21C (stereo partly drawn)
Reply: 1.04

Task item: Sample C[C@]12C=CC(=O)C=C1CCC1C2C(=O)C[C@@]2(C)C1CC[C@]2(O)C(=O)CO (stereo partly drawn) — what was its normalized growth?
Reply: 0.978

Task item: # query: normalized growth of entry `O=c1[nH]c2ccccc2n1C1CCN(CCCC(c2ccc(F)cc2)c2ccc(F)cc2)CC1`
Reply: 0.916

Task item: Entry under review: CC(=O)O[C@@H]1CC2C(C)(C)[C@H](O)C[C@H](O)[C@]2(C)C2CC[C@@]3(C)C(=CC(=O)O[C@H]3c3ccoc3)[C@@]21C (stereo partly drawn) . Reported normalized growth?
Reply: 1.03

Task item: Param item = `O=C1c2ccccc2-c2cccc3cccc1c23` ; retrieve measured normalized growth.
Reply: 0.868

Task item: Return reported normalized growth; argument: `CC(C)=CCOc1cc2oc(=O)ccc2cc1O`
Reply: 0.886

Task item: For the compound shown here, `N#Cc1ccc2c(c1)N(CCCN1CCC(O)CC1)c1ccccc1S2` , give the reported normalized growth.
Reply: 0.97
